tested on: Mycolicibacterium smegmatis; assay: Antimycobacterial activity against Mycobacterium smegmatis MC2 by agar dilution method; format: functional
Simple rule here: MIC less than 20 µg/mL is met, otherwise not met.

{"Compound": "CN1C/C(=C\\c2ccccc2)C(=O)[C@]2(C1)[C@@H](c1ccccc1)[C@@H]1CCCN1[C@@]21C(=O)Nc2ccccc21 (racemic)", "Category": "not met"}
{"Compound": "CN1C/C(=C\\c2ccccc2Cl)C(=O)[C@]2(C1)[C@@H](c1ccccc1Cl)[C@H](c1ccccc1)N[C@@]21C(=O)Nc2ccccc21 (racemic)", "Category": "met"}
{"Compound": "CN1C/C(=C\\c2cccc(F)c2)C(=O)[C@]2(C1)[C@@H](c1cccc(F)c1)[C@@H]1CCCN1[C@@]21C(=O)Nc2ccccc21 (racemic)", "Category": "not met"}
{"Compound": "CN1C/C(=C\\c2ccc(Cl)cc2Cl)C(=O)[C@]2(C1)[C@@H](c1ccc(Cl)cc1Cl)[C@@H]1CCCN1[C@@]21C(=O)Nc2ccccc21 (racemic)", "Category": "not met"}
{"Compound": "CN1C/C(=C\\c2ccc(Cl)cc2)C(=O)[C@]2(C1)[C@@H](c1ccc(Cl)cc1)CN(C)[C@@]21C(=O)Nc2ccccc21 (racemic)", "Category": "met"}
{"Compound": "Cc1ccccc1/C=C1\\CN(C)C[C@@]2(C1=O)[C@@H](c1ccccc1C)CN(C)[C@@]21C(=O)Nc2ccccc21 (racemic)", "Category": "met"}

---

MIC overview
test system: Mycolicibacterium smegmatis; assay: Antimycobacterial activity against Mycobacterium smegmatis MC2 by agar dilution method; assay type: functional
Measurement Label: MIC (µg/mL)

{"Molecule": "Cc1ccc(/C=C2\\CN(C)C[C@@]3(C2=O)[C@@H](c2ccc(C)cc2)CN(C)[C@@]32C(=O)Nc3ccccc32)cc1 (racemic)", "Measurement Label": "MIC", "Units Symbol": "µg/mL", "Result Value": 50.9}
{"Molecule": "CN1C/C(=C\\c2cccc(F)c2)C(=O)[C@]2(C1)[C@@H](c1cccc(F)c1)CN(C)[C@@]21C(=O)Nc2ccccc21 (racemic)", "Measurement Label": "MIC", "Units Symbol": "µg/mL", "Result Value": 6.27}
{"Molecule": "COc1ccc(/C=C2\\CN(C)C[C@@]3(C2=O)[C@@H](c2ccc(OC)cc2)[C@@H]2CCCN2[C@@]32C(=O)Nc3ccccc32)cc1 (racemic)", "Measurement Label": "MIC", "Units Symbol": "µg/mL", "Result Value": 45.5}

---

system: Vero; assay: Cytotoxicity against african green monkey Vero cells after 72 hrs by MTT assay; assay type: cell-based; conditions: Chlorocebus sabaeus

{"Molecule": "CN1C/C(=C\\c2ccccc2Cl)C(=O)[C@]2(C1)[C@@H](c1ccccc1Cl)CN(C)[C@@]21C(=O)Nc2ccccc21 (racemic)", "Target": "Vero", "IC50 / µM": 117}
{"Molecule": "COc1ccccc1/C=C1\\CN(C)C[C@@]2(C1=O)[C@@H](c1ccccc1OC)[C@@H]1CCCN1[C@@]21C(=O)Nc2ccccc21 (racemic)", "Target": "Vero", "IC50 / µM": 114}
{"Molecule": "Cc1ccccc1/C=C1\\CN(C)C[C@@]2(C1=O)[C@@H](c1ccccc1C)CN(C)[C@@]21C(=O)Nc2ccccc21 (racemic)", "Target": "Vero", "IC50 / µM": 127}

---

system: Mycolicibacterium smegmatis; experiment: Antimycobacterial activity against Mycobacterium smegmatis MC2 by agar dilution method; format: functional
log10 of MIC overview
Measurement Label: log10 of MIC (log10 of the value in µg/mL)

{"Compound": "CN1C/C(=C\\c2ccc(F)cc2)C(=O)[C@]2(C1)[C@@H](c1ccc(F)cc1)CN(C)[C@@]21C(=O)Nc2ccccc21", "Target": "Mycolicibacterium smegmatis", "log10 of MIC": 1.70}
{"Compound": "COc1ccc(/C=C2\\CN(C)C[C@@]3(C2=O)[C@@H](c2ccc(OC)cc2)[C@H](c2ccccc2)N[C@@]32C(=O)Nc3ccccc32)cc1 (racemic)", "Target": "Mycolicibacterium smegmatis", "log10 of MIC": 0.12}
{"Compound": "CN1C/C(=C\\c2cccs2)C(=O)[C@]2(C1)[C@@H](c1cccs1)[C@H](c1ccccc1)N[C@@]21C(=O)Nc2ccccc21 (racemic)", "Target": "Mycolicibacterium smegmatis", "log10 of MIC": 1.06}
{"Compound": "CN1C/C(=C\\c2ccco2)C(=O)[C@]2(C1)[C@@H](c1ccco1)[C@H](c1ccccc1)N[C@@]21C(=O)Nc2ccccc21 (racemic)", "Target": "Mycolicibacterium smegmatis", "log10 of MIC": 1.69}
{"Compound": "Cc1ccc(/C=C2\\CN(C)C[C@@]3(C2=O)[C@@H](c2ccc(C)cc2)[C@H](c2ccccc2)N[C@@]32C(=O)Nc3ccccc32)cc1 (racemic)", "Target": "Mycolicibacterium smegmatis", "log10 of MIC": 0.45}
{"Compound": "NNC(=O)c1ccncc1", "Target": "Mycolicibacterium smegmatis", "log10 of MIC": 1.66}
{"Compound": "CN1C/C(=C\\c2cccs2)C(=O)[C@]2(C1)[C@@H](c1cccs1)[C@@H]1CCCN1[C@@]21C(=O)Nc2ccccc21 (racemic)", "Target": "Mycolicibacterium smegmatis", "log10 of MIC": 0.49}
{"Compound": "CN1C/C(=C\\c2ccc(Cl)cc2)C(=O)[C@]2(C1)[C@@H](c1ccc(Cl)cc1)[C@H](c1ccccc1)N[C@@]21C(=O)Nc2ccccc21 (racemic)", "Target": "Mycolicibacterium smegmatis", "log10 of MIC": 1.62}
{"Compound": "Cc1ccccc1/C=C1\\CN(C)C[C@@]2(C1=O)[C@@H](c1ccccc1C)[C@H](c1ccccc1)N[C@@]21C(=O)Nc2ccccc21 (racemic)", "Target": "Mycolicibacterium smegmatis", "log10 of MIC": 1.05}
{"Compound": "CN1C/C(=C\\c2ccc(Cl)cc2Cl)C(=O)[C@]2(C1)[C@@H](c1ccc(Cl)cc1Cl)[C@H](c1ccccc1)N[C@@]21C(=O)Nc2ccccc21 (racemic)", "Target": "Mycolicibacterium smegmatis", "log10 of MIC": 0.97}
{"Compound": "CN1C/C(=C\\c2cccs2)C(=O)[C@]2(C1)[C@@H](c1cccs1)CN(C)[C@@]21C(=O)Nc2ccccc21 (racemic)", "Target": "Mycolicibacterium smegmatis", "log10 of MIC": 0.82}
{"Compound": "CN1C/C(=C\\c2ccc(Cl)cc2)C(=O)[C@]2(C1)[C@@H](c1ccc(Cl)cc1)[C@@H]1CCCN1[C@@]21C(=O)Nc2ccccc21 (racemic)", "Target": "Mycolicibacterium smegmatis", "log10 of MIC": 1.96}
{"Compound": "Cc1ccc(/C=C2\\CN(C)C[C@@]3(C2=O)[C@@H](c2ccc(C)cc2)[C@@H]2CCCN2[C@@]32C(=O)Nc3ccccc32)cc1 (racemic)", "Target": "Mycolicibacterium smegmatis", "log10 of MIC": 1.38}

---

pIC50 overview
test system: Vero; test: Cytotoxicity against african green monkey Vero cells after 72 hrs by MTT assay; format: cell-based; conditions: Chlorocebus sabaeus
pIC50: −log10 of the molar value.
Measurement Label: pIC50

{"Compound": "CN1C/C(=C\\c2cccc(F)c2)C(=O)[C@]2(C1)[C@@H](c1cccc(F)c1)CN(C)[C@@]21C(=O)Nc2ccccc21 (racemic)", "Result Value": 3.90}
{"Compound": "CN1C/C(=C\\c2ccc(F)cc2)C(=O)[C@]2(C1)[C@@H](c1ccc(F)cc1)[C@H](c1ccccc1)N[C@@]21C(=O)Nc2ccccc21 (racemic)", "Result Value": 3.95}
{"Compound": "CN1C/C(=C\\c2ccc(Cl)cc2Cl)C(=O)[C@]2(C1)[C@@H](c1ccc(Cl)cc1Cl)[C@H](c1ccccc1)N[C@@]21C(=O)Nc2ccccc21 (racemic)", "Result Value": 4.03}
{"Compound": "CN1C/C(=C\\c2cccc(F)c2)C(=O)[C@]2(C1)[C@@H](c1cccc(F)c1)[C@H](c1ccccc1)N[C@@]21C(=O)Nc2ccccc21 (racemic)", "Result Value": 3.95}
{"Compound": "CN1C/C(=C\\c2ccccc2Cl)C(=O)[C@]2(C1)[C@@H](c1ccccc1Cl)[C@@H]1CCCN1[C@@]21C(=O)Nc2ccccc21 (racemic)", "Result Value": 3.94}
{"Compound": "COc1ccccc1/C=C1\\CN(C)C[C@@]2(C1=O)[C@@H](c1ccccc1OC)[C@H](c1ccccc1)N[C@@]21C(=O)Nc2ccccc21 (racemic)", "Result Value": 3.97}
{"Compound": "CN1C/C(=C\\c2cccs2)C(=O)[C@]2(C1)[C@@H](c1cccs1)CN(C)[C@@]21C(=O)Nc2ccccc21 (racemic)", "Result Value": 3.88}
{"Compound": "CN1C/C(=C\\c2ccc(Cl)cc2)C(=O)[C@]2(C1)[C@@H](c1ccc(Cl)cc1)CN(C)[C@@]21C(=O)Nc2ccccc21 (racemic)", "Result Value": 3.93}
{"Compound": "CN1C/C(=C\\c2ccc(Cl)cc2Cl)C(=O)[C@]2(C1)[C@@H](c1ccc(Cl)cc1Cl)CN(C)[C@@]21C(=O)Nc2ccccc21 (racemic)", "Result Value": 3.98}
{"Compound": "CN1C/C(=C\\c2ccccc2Cl)C(=O)[C@]2(C1)[C@@H](c1ccccc1Cl)[C@H](c1ccccc1)N[C@@]21C(=O)Nc2ccccc21 (racemic)", "Result Value": 3.98}
{"Compound": "Cc1ccc(/C=C2\\CN(C)C[C@@]3(C2=O)[C@@H](c2ccc(C)cc2)[C@H](c2ccccc2)N[C@@]32C(=O)Nc3ccccc32)cc1 (racemic)", "Result Value": 3.95}
{"Compound": "CN1C/C(=C\\c2cccs2)C(=O)[C@]2(C1)[C@@H](c1cccs1)[C@@H]1CCCN1[C@@]21C(=O)Nc2ccccc21 (racemic)", "Result Value": 3.90}
{"Compound": "CN1C/C(=C\\c2ccc(F)cc2)C(=O)[C@]2(C1)[C@@H](c1ccc(F)cc1)[C@@H]1CCCN1[C@@]21C(=O)Nc2ccccc21 (racemic)", "Result Value": 3.92}
{"Compound": "Cc1ccccc1/C=C1\\CN(C)C[C@@]2(C1=O)[C@@H](c1ccccc1C)[C@H](c1ccccc1)N[C@@]21C(=O)Nc2ccccc21 (racemic)", "Result Value": 3.95}
{"Compound": "COc1ccc(/C=C2\\CN(C)C[C@@]3(C2=O)[C@@H](c2ccc(OC)cc2)[C@H](c2ccccc2)N[C@@]32C(=O)Nc3ccccc32)cc1 (racemic)", "Result Value": 3.97}
{"Compound": "CN1C/C(=C\\c2ccccc2)C(=O)[C@]2(C1)[C@@H](c1ccccc1)[C@H](c1ccccc1)N[C@@]21C(=O)Nc2ccccc21 (racemic)", "Result Value": 3.92}
{"Compound": "COc1ccc(/C=C2\\CN(C)C[C@@]3(C2=O)[C@@H](c2ccc(OC)cc2)CN(C)[C@@]32C(=O)Nc3ccccc32)cc1 (racemic)", "Result Value": 3.92}

Data provenance: ChEMBL document CHEMBL1140053
